Molecular target: RORγ ligand-binding domain fused to Gal4 (Homo sapiens)
Construct: Gal4 (galactose-responsive transcription factor); expressed in transfected cells; host or cells: HEK293
Experiment: RORγ Reporter Assay (Gal4)
Format: cell-based
Details: HEK293 cells co-transfected with RORγ LBD-Gal4 and luciferase reporter; 24 h incubation; absolute EC50; read-out: EC50
I'd appreciate it if you marked entries met when EC50 is lower than 90 nM and not met when it is not.

1. NC(=O)CN1CC[C@@H](CNc2ncnc(N(Cc3ccc(C(F)(F)F)cn3)C3CCC3)c2F)[C@H](O)C1 (racemic) [Example A7-24]    not met
2. CC(C)N(Cc1ccc(C(F)(F)F)cc1)c1ncnc(NC[C@H]2CCN(CC(N)=O)C[C@@H]2O)c1F (relative stereo) [Example A7-19-1]    met
3. NC(=O)CN1CCC(CNc2ncnc(N(Cc3ccc(C(F)(F)F)cc3)C3CC3)c2F)(c2nnco2)CC1 [Example A7-82]    met
4. NC(=O)CN1CC[C@@H](CNc2ncnc(N(Cc3ccc(C(F)(F)F)cc3)C3CCC3)c2F)[C@H](O)C1 (single isomer, unassigned) [Example A7-16-1]    met
5. NC(=O)C(CO)N1CCC(CNc2ncnc(N(Cc3ccc(C(F)(F)F)cc3)C3CC3)c2F)CC1 (stereo not shown) [Example A7-64]    met
6. Cc1cc(CN(c2ncnc(NCC3CCN(CC(N)=O)CC3)c2F)C2CC2)cc(C)c1Cl [Example A7-53]    not met
7. COC(=O)C1(CNc2ncnc(N(Cc3ccc(C(F)(F)F)cc3)C3CC3)c2F)CCN(CC(N)=O)CC1 [Example A7-08]    met
8. CCN(Cc1ccc(-c2cnn(CCO)c2)cc1)c1ncnc(NC[C@@H]2CCN(CC(N)=O)C[C@H]2O)c1F (racemic) [Example A7-73]    not met
9. NC(=O)CN1CCC(CNc2ncnc(N(Cc3ccc4c(c3)OCC(=O)N4)C3CC3)c2F)CC1 [Example A7-37]    not met
10. NC(=O)CN1CC[C@](O)(CNc2ncnc(N(Cc3ccccc3F)C3CC3)c2F)[C@@H](O)C1 (relative stereo) [Example D5-10]    not met
11. NC(=O)CN1CC[C@@](O)(CNc2ncnc(N(Cc3ccc(C(O)(C(F)(F)F)C(F)(F)F)cc3)C3CC3)c2F)[C@H](O)C1 (relative stereo) [Example D5-06]    met
12. NC(=O)CN1CCC(CNc2ncnc(N(Cc3ccc(C(F)(F)F)cc3)C3CC3)c2F)C(C(F)(F)F)C1 (single isomer, unassigned) [Example A7-07-2]    not met
13. CCN(Cc1ccc(C(F)(F)CO)cc1)c1ncnc(NC[C@@H]2CCN(CC(N)=O)C[C@H]2O)c1F (racemic) [Example A7-79]    not met

###

System: Th17 cells
Assay: Th17 Assay (IL-17 levels in supernatants of differentiating Th17 cells)
Type: cell-based
Details: 168 h; human naive CD4+ T cells differentiated to Th17 for seven days; IL-17 in supernatants by ELISA
readout: EC50 (µM)

1. NC(=O)CN1CCC(CNc2ncnc(N(Cc3ccc(C(F)(F)F)cn3)C3CC3)c2F)C(F)(F)C1 (single isomer, unassigned) [Example A7-03-1]    0.083

###

Biological target: RORγ ligand-binding domain fused to Gal4 (Homo sapiens)
Construct: Gal4 (galactose-responsive transcription factor); expressed in transfected cells; host or cells: HEK293
Sequence (P51449 269-508 limits assumed): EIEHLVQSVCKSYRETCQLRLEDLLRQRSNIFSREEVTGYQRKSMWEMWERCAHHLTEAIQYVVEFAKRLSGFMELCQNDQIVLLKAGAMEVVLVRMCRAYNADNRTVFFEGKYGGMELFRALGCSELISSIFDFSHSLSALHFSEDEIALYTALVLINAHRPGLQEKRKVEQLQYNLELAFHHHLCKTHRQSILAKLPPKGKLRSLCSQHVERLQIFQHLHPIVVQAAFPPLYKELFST
Test: RORγ Reporter Assay (Gal4)
Assay type: cell-based
Conditions: HEK293 cells co-transfected with RORγ LBD-Gal4 and luciferase reporter; 24 h incubation; absolute EC50; read-out: EC50
readout: log10 of EC50 (log10 of the value in nM)

1. NC(=O)CN1CCC(CNc2ncnc(N(Cc3ccc(C(F)(F)F)cc3)C3CC3)c2F)(c2ncc[nH]2)CC1    2.48
2. CCN(Cc1ccc(C(F)(F)F)cc1)c1ncnc(NC[C@H]2CCN(CC(N)=O)C[C@@H]2O)c1F (single isomer, unassigned) [Example A7-21-1]    0.97
3. NC(=O)C(CO)N1CCC(O)(CNc2ncnc(N(Cc3ccc(C(F)(F)F)cc3)C3CC3)c2F)CC1 (stereo not shown)    1.30
4. Cc1cc(C(F)(F)F)ccc1CN(c1ncnc(NCC2CCN(CC(N)=O)CC2)c1F)C1CC1    1.88
5. NC(=O)CN1CCC(CNc2ncnc(N(Cc3ccc(C(F)(F)F)cc3)C3CC3)c2F)(c2nc[nH]n2)CC1    1.72
6. NC(=O)CN1CCC(C(CO)Nc2ncnc(N(Cc3ccc(C(F)(F)F)cc3)C3CC3)c2F)CC1 (stereo not shown)    2.26
7. NC(=O)CN1CC[C@H](CNc2ncnc(N(Cc3ccc(C(F)(F)F)cc3)C3CC3)c2F)[C@@H](F)C1 (relative stereo)    1.15
